meta.source: the supplement of paper PMC6555819

Test system: PPARg:RXRa (NR concentration 180 nM, RXRa partner concentration 90 nM)
Test: PBM binding z-score (relative to random genomic background probes); higher = stronger binding; sequences stand for … in GC…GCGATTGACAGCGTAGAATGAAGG
Exercise: for every item that follows, state its recorded PBM binding z-score.
Write no unit; give the number alone.

Inquiry: Any idea what its PBM binding z-score is? The sequence is TCATATAGGTAAAAGGCGAAAGTCGGTGTGGTAA
Reply text: 4.65

Inquiry: Any idea what its PBM binding z-score is? The sequence is ACTATTAGTTGACTTAGGGCAACCGATACGACGC
Reply text: 0.995

Inquiry: Any idea what its PBM binding z-score is? The sequence is GCTGCTAGGTCAACTGATGGTAAGCTAAAGCTCG
Reply text: 2.6

Inquiry: Any idea what its PBM binding z-score is? The sequence is ACTACAGGGTCATCGTAGGCCAGAGTACGCACAG
Reply text: 5.88

Inquiry: Any idea what its PBM binding z-score is? The sequence is GTACCAAGGTCAATAGGTCGTTGATGAGTAGGCG
Reply text: 5.15

Inquiry: Any idea what its PBM binding z-score is? The sequence is ATCTCTAGGTATAGATAGTTCAGTGAATGCAAAT
Reply text: 0.685

Inquiry: Any idea what its PBM binding z-score is? The sequence is CCTTACGGGTTACGAGGTTATAGCACGACGAGCG
Reply text: 2.89

Inquiry: Any idea what its PBM binding z-score is? The sequence is ATCGAAAGGTCGTGAGATGAGTATACAGAAAGGC
Reply text: 3.63

Inquiry: Any idea what its PBM binding z-score is? The sequence is ATATCTAGGTAAAGATAGTTCAGTGAATGCAAAT
Reply text: 3.15

Inquiry: Any idea what its PBM binding z-score is? The sequence is CCGAGTAGGTTATGGGGCAATCAGGCAACGGTGA
Reply text: 3.61

Inquiry: Any idea what its PBM binding z-score is? The sequence is CTACCACGGTGAACAAGGTCGTTGATTACTATTC
Reply text: 0.357

Inquiry: Any idea what its PBM binding z-score is? The sequence is GCAGACAGGTGAAATGCAGGTAACTCAGGGTGGC
Reply text: 0.71

Inquiry: Any idea what its PBM binding z-score is? The sequence is AGAACGAGGGCACGCTGTGTTGATAGCAGAGTAG
Reply text: 2.14

Inquiry: Any idea what its PBM binding z-score is? The sequence is AGAATGAGGTTAAGATCAGGGGAACAGAATACAT
Reply text: 2.33

Inquiry: Any idea what its PBM binding z-score is? The sequence is AGAACGAGGGCACGCTGACTTGATAGCAGAGTAG
Reply text: 2.29

Inquiry: Any idea what its PBM binding z-score is? The sequence is GCTGCTAGGTCAGGTTGGTCAGGTAACGGGTACG
Reply text: 0.626

Inquiry: Any idea what its PBM binding z-score is? The sequence is TCTTGTAGATCAGCAGTTTAAGAAAGCTGGCCAA
Reply text: -0.762

Inquiry: Any idea what its PBM binding z-score is? The sequence is ATATGTAGGTTACATCCGGGTCATTCAAGCTATG
Reply text: 6.29

Inquiry: Any idea what its PBM binding z-score is? The sequence is TAGCCTAGGTCATGGGCAAGTATACCACGCGAAC
Reply text: 3.93

Inquiry: Any idea what its PBM binding z-score is? The sequence is CACGAAAGGTCGGTTGAGGTGAGTATACGGATAA
Reply text: 0.823

Inquiry: Any idea what its PBM binding z-score is? The sequence is TCTTGTAGATCAGCAGGTTAACAAAGCTGGCCAA
Reply text: 0.102

Inquiry: Any idea what its PBM binding z-score is? The sequence is CCTACTGGGCCAGAAAGGTCATTGATGCCGATAA
Reply text: 2.59

Inquiry: Any idea what its PBM binding z-score is? The sequence is CTCGAAAGGTCGGTTGAGGTGAGCATACGGATAA
Reply text: 0.697

Inquiry: Any idea what its PBM binding z-score is? The sequence is TCGAGTAGGTTAGTCGGGGCTTTCAGCCAACATA
Reply text: -0.922

Inquiry: Any idea what its PBM binding z-score is? The sequence is AATACAGGCTCATCGTAGGCCAGAGTACGCACAG
Reply text: 0.784

Inquiry: Any idea what its PBM binding z-score is? The sequence is TCTTGTAGATCAATAGAGGTTAAGGAAGTGCGCT
Reply text: 0.136

Inquiry: Any idea what its PBM binding z-score is? The sequence is AGAATGAGGTTAGGATCAGGGAAACAGAATACAT
Reply text: 1.11

Inquiry: Any idea what its PBM binding z-score is? The sequence is CGTCCAAGGTCAAAGGTCAGTCAAGAGATGACGG
Reply text: 10.9

Inquiry: Any idea what its PBM binding z-score is? The sequence is CCTACTGAGCCACGAAAGGTCATTGATTCAGTGA
Reply text: 1.27

Inquiry: Any idea what its PBM binding z-score is? The sequence is TGAATAAGGTTATAAGATCAGGGAACGTTGCAAA
Reply text: 0.925

Inquiry: Any idea what its PBM binding z-score is? The sequence is TCTCGGAGGACGCGAAGGTCAGAGCTTTCCAGAG
Reply text: -0.182

Inquiry: Any idea what its PBM binding z-score is? The sequence is GCTATTAGTTGAAAGGGCACCCGAATGATTCTCG
Reply text: 2.65

Inquiry: Any idea what its PBM binding z-score is? The sequence is CCGACTGGGGCAATGTTACCATAACGCACAGCCA
Reply text: 1.21

Inquiry: Any idea what its PBM binding z-score is? The sequence is CCTTACGAGTCACTCCAGGTTATAGCATCGGAGT
Reply text: 0.539

Inquiry: Any idea what its PBM binding z-score is? The sequence is TCGAGTAGGTTAGGGGCATTCACAATGGCGTCGA
Reply text: 1.01

Inquiry: Any idea what its PBM binding z-score is? The sequence is CGTTACGGGTCACTCCAGGTTATAGCATCGGAGT
Reply text: 3.44

Inquiry: Any idea what its PBM binding z-score is? The sequence is CCTAGTGGGCCACGAAAGGTCATTGATTCAGTGA
Reply text: 4.51

Inquiry: Any idea what its PBM binding z-score is? The sequence is CCTTACGGGTCACTGACCGGTTATAGCATTTGGA
Reply text: 3.68

Inquiry: Any idea what its PBM binding z-score is? The sequence is CCGACTGGGGCAGAAAGATTACCATACCATCCGG
Reply text: 0.958

Inquiry: Any idea what its PBM binding z-score is? The sequence is AATACAGGGTCATCGTAGGCCTGAGTACGCACAG
Reply text: 6.49

Inquiry: Any idea what its PBM binding z-score is? The sequence is ATCTCTAGGTAAGACTCAGTTCGGTGAAGAACGC
Reply text: -0.0259

Inquiry: Any idea what its PBM binding z-score is? The sequence is ATATGTAGGTTATCGGGTCAGTCAGTTTGCGCAT
Reply text: 6.83

Inquiry: Any idea what its PBM binding z-score is? The sequence is ACAGACAGGTGATGAAGGTTACTCAGGCTATCAT
Reply text: 0.777

Inquiry: Any idea what its PBM binding z-score is? The sequence is CCTAGCAGGCCAATCTGGGTCTCTCAAGGCTTGA
Reply text: -0.774

Inquiry: Any idea what its PBM binding z-score is? The sequence is CGTCCAAGGTCAGTAGGTCAGTGAAAGCGACGTG
Reply text: 6.2

Inquiry: Any idea what its PBM binding z-score is? The sequence is TCTCTTAGTTGATTAGGGCAACCGAAACAGCGGA
Reply text: 0.00699
